Hello, the source for this data is paper PMC9339481, in case you need it.

- experimental system: recombinant MBLAC2 (Homo sapiens, UniProt Q68D91)
- Sequence (Q68D91 whole entry): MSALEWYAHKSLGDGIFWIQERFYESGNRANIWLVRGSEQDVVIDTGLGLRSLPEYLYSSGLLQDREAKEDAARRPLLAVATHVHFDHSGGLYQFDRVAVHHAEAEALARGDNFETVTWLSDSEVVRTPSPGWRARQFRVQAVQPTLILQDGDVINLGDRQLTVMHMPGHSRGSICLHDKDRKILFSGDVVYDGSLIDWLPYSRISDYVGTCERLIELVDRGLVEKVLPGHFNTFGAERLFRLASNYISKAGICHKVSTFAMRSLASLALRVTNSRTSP
- protocol details: Palmitoyl-CoA hydrolysis assay
- Format: biochemical
- stated conditions: EC50 of MBLAC2 hydrolase activity inhibition, assay threshold 10 nM
Each entry below carries its reported EC50.

Sure, the documented EC50 for `CN(C)Cc1c(C(=O)NCCOc2ccc(C(=O)NO)cc2)oc2ccccc12` is < 10 nM

***
Sure, the documented EC50 for `CCCCc1nc2cc(/C=C/C(=O)NO)ccc2n1CCN(CC)CC` is < 10 nM
